experiment: Cytotoxicity against human HL60 cells assessed as cell growth inhibition after 72 hrs by MTT assay; type: functional, cell-based; settings: HL-60, 72 h
parameter: pIC50
To interpret pIC50, take it as minus log10 of a concentration measured in moles per litre.

Record C[C@@H]1CCC=C2CC[C@]3(C[C@]21C)O[C@]3(C)CO . Reported pIC50: 4.24

What the record says about COc1cc([C@@H]2c3cc4c(cc3[C@@H](O[C@@H]3O[C@@H]5CO[C@@H](C)O[C@H]5[C@H](O)[C@H]3O)[C@H]3COC(=O)[C@H]23)OCO4)cc(OC)c1O [ETOPOSIDE] : pIC50 is 6.52
